- procedure_summary: Population PK modeling of the relationship between plasma and breast milk concentrations
- Type: in vivo, human
- condition_set: female, human, breast milk/plasma, oral, 30 mg; constant; population PK modeling; read-out: partition coefficient between milk and plasma
property: Kp
Answers are plain numbers.

Query string: Reported Kp for C[C@@]1(O)CC[C@H]2[C@H](CC[C@@H]3[C@@H]2CC[C@]2(C)[C@@H](C(=O)Cn4cc(C#N)cn4)CC[C@@H]32)C1 [Compound (1)] : what is it?
Result string: 0.501
